biological target: Mitogen-activated protein kinase 8 (Homo sapiens); experiment: Inhibition of JNK1 at 10 uM by HTRF assay relative to control
measured_quantity: inhibition (%)
The reply should be a number in %, with the unit left off.

## Input Field request: inhibition | item: CC(=O)CCCCC(=O)N1CCN(c2nccc(Oc3cccc(C)c3)n2)CC1
## Output 8

## Input Another compound to check: O=C(NC1Cc2ccccc2C1)c1cccc(Nc2ccnc(N3CCN(c4ccccc4)CC3)n2)c1
## Output 0

## Input Another compound to check: Cc1cccc(N(C)c2cc(N3CCN(C(=O)Cc4c[nH]c5ccccc45)CC3)ncn2)c1
## Output 9

## Input Another compound to check: O=C(CN1CCN(c2ncnc3c2CN(Cc2ccccc2)CC3)CC1)Nc1cc(F)ccc1F
## Output 0

## Input Another compound to check: COC[C@@H]1CCCN1C(=O)C1CCCN1c1cc(Nc2cccc(Br)c2)ncn1 (stereo partly drawn)
## Output 0

## Input Another compound to check: O=C(C1CCN(c2nccc(Nc3ccccc3)n2)CC1)N1CC[C@@H](O)C1
## Output 0

## Input Another compound to check: CN(C)CC(C)(C)CNC(=O)c1cccc(Nc2nccc(Nc3ccc4ncsc4c3)n2)c1
## Output 97

## Input Another compound to check: O=C(c1nc(SCc2ccc(Cl)cc2)n2ccccc12)N1CCN(c2ncnc3c2CN(Cc2ccccc2)CC3)CC1
## Output 7

## Input Another compound to check: Nc1nc(Nc2ccc(C(=O)NCCc3ccncc3)cc2)cc(N2CCOCC2)n1
## Output 11

## Input Another compound to check: Cc1cccc(N(C)c2cc(Nc3cccc(C(=O)N(CC(C)C)CC(C)C)c3)ncn2)c1
## Output 0

## Input Another compound to check: Cc1cccc(N(C)c2cc(Nc3ccc(CC(=O)Nc4ccc5ncsc5c4)cc3)ncn2)c1
## Output 7

## Input Another compound to check: Cc1cccc(Nc2ncnc3c2CN(C(=O)c2ccc(N(C)C)c4ccccc24)CC3)c1
## Output 0

## Input Another compound to check: O=C(NC[C@@H]1CCCO1)c1cccc(Nc2nccc(Nc3ccc4ncsc4c3)n2)c1
## Output 94

## Input Another compound to check: Cc1cccc(Nc2nccc(Nc3cccc(C(=O)NCc4ccc(N(C)C)cc4)c3)n2)c1
## Output 0

## Input Another compound to check: COc1cccc(Nc2cc(N3CCC[C@H]3C(=O)NCCN3CCCCC3)nc(N)n2)c1
## Output 10

## Input Another compound to check: CN(CCCn1ccnc1)C(=O)[C@@H]1CCCN1c1nccc(Nc2ccccc2)n1
## Output 0

## Input Another compound to check: Clc1ccc2sc(CN3CCN(c4ncnc5c4CN(Cc4ccccc4)CC5)CC3)cc2c1
## Output 3

## Input Another compound to check: COc1ccc(-c2noc(CN3CCN(c4cc(Nc5cccc(O)c5)ncn4)CC3)n2)cc1
## Output 0

* * *

Exercise: state measured inhibition for each of the compounds provided.
target: UniProt P09619; assay: Inhibition of PDGFRbeta at 10 uM by HTRF assay relative to control
Sequence (P09619 whole entry): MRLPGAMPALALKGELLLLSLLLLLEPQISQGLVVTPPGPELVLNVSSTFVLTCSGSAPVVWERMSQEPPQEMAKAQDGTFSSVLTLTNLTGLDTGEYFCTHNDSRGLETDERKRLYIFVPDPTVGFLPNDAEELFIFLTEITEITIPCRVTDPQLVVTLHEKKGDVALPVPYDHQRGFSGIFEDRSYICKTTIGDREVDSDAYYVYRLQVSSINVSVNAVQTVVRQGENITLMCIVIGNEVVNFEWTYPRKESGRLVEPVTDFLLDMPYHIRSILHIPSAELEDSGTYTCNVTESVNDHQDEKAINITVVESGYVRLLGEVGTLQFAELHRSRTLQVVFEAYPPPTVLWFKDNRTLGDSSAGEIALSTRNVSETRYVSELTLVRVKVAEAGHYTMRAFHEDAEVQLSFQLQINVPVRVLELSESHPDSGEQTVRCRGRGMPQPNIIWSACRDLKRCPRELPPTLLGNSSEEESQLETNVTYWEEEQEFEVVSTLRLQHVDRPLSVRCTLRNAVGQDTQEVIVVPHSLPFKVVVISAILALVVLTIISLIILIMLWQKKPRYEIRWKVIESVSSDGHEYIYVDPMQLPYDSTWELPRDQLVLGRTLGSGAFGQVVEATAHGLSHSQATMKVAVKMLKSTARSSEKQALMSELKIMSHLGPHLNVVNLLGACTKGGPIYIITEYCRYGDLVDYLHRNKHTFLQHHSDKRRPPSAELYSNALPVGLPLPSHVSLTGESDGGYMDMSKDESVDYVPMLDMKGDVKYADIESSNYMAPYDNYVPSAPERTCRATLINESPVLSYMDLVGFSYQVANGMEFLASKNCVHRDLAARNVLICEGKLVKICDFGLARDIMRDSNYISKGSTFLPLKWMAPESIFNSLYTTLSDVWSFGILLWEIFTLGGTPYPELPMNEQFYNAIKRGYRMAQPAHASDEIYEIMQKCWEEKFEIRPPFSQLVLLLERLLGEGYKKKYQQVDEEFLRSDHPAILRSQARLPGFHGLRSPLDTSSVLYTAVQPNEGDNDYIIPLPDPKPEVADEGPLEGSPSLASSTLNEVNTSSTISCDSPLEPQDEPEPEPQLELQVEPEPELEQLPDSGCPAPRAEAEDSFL
The reply should be a number in %, with the unit left off.

## Input Field request: inhibition | item: Cc1cccc(Oc2ccnc(N3CCN(CC(=O)Nc4cccc5c4CCCC5)CC3)n2)c1
## Output 6

## Input Another compound to check: CN(CCc1ccccn1)C(=O)c1cccc(Nc2nccc(Nc3ccc4ncsc4c3)n2)c1
## Output 91

## Input Another compound to check: COC[C@@H]1CCCN1C(=O)[C@@H]1CCCN1c1nccc(Nc2ccccc2)n1
## Output 8

## Input Another compound to check: Nc1nc(Nc2ccc(C(=O)NCCc3ccncc3)cc2)cc(N2CCOCC2)n1
## Output 13

## Input Another compound to check: O=C(c1nc(SCc2ccc(Cl)cc2)n2ccccc12)N1CCN(c2ncnc3c2CN(Cc2ccccc2)CC3)CC1
## Output 7

## Input Another compound to check: Nc1nc(N2CCOCC2)cc(N2CCC(C(=O)NCCc3ccc(O)cc3)CC2)n1
## Output 0

## Input Another compound to check: Cc1cccc(Oc2ccnc(N3CCN(C(=O)c4c(C)noc4C)CC3)n2)c1
## Output 5

## Input Another compound to check: O=C(C1CCN(c2nccc(Nc3ccccc3)n2)CC1)N1CC[C@@H](O)C1
## Output 6

## Input Another compound to check: CN(CCc1ccccn1)C(=O)[C@@H]1CCCN1c1nccc(Nc2ccccc2)n1
## Output 5

## Input Another compound to check: Cc1cc(C(=O)N2CCN(c3ncnc4c3CN(Cc3ccccc3)CC4)CC2)c(C)n1C
## Output 5

## Input Another compound to check: Cc1cccc(N(C)c2cc(Nc3cccc(C(=O)N4CCCC5CCCCC54)c3)ncn2)c1 (stereo not given)
## Output 5

## Input Another compound to check: CN(CCCn1ccnc1)C(=O)[C@@H]1CCCN1c1nccc(Nc2ccccc2)n1
## Output 11

## Input Another compound to check: Cc1cccc(N(C)c2cc(Nc3cccc(C(=O)NCc4ccncc4)c3)ncn2)c1
## Output 33

## Input Another compound to check: Cc1cccc(Nc2ncnc3c2CN(C(=O)c2ccc(N(C)C)c4ccccc24)CC3)c1
## Output 10

## Input Another compound to check: Cc1cccc(N(C)c2cc(N3CCN(CC(=O)Nc4nc(-c5ccccc5)cs4)CC3)ncn2)c1
## Output 7

## Input Another compound to check: Cc1cccc(Oc2ccnc(N3CCC[C@H]3C(=O)NCCCn3ccnc3)n2)c1
## Output 7

## Input Another compound to check: Cc1cccc(CN2CCN(c3cc(N(C)c4cccc(C)c4)ncn3)CC2)c1
## Output 6

## Input Another compound to check: Cc1cccc(N(C)c2cc(Nc3ccc(CC(=O)Nc4ccc5ncsc5c4)cc3)ncn2)c1
## Output 48

## Input Another compound to check: COc1ccc(-c2noc(CN3CCN(c4cc(Nc5cccc(O)c5)ncn4)CC3)n2)cc1
## Output 6

## Input Another compound to check: Cc1cccc(Oc2ccnc(N3CCC[C@H]3C(=O)NCc3cccnc3)n2)c1
## Output 11

## Input Another compound to check: O=C(NCCc1ccc(O)cc1)c1cccc(Nc2nccc(Nc3ccc4ncsc4c3)n2)c1
## Output 89

## Input Another compound to check: O=C(NCc1ccncc1)c1cccc(Nc2cc(Nc3cccc(Br)c3)ncn2)c1
## Output 26

## Input Another compound to check: COc1cccc(Nc2cc(Nc3cccc(C(=O)NCCCn4ccnc4)c3)nc(N)n2)c1
## Output 7

## Input Another compound to check: Nc1nc(N2CCOCC2)cc(N2CCC(C(=O)NCc3cccs3)CC2)n1
## Output 8

## Input Another compound to check: COc1ccc(NC(=O)Cc2ccc(Nc3cc(N(C)c4cccc(C)c4)ncn3)cc2)cn1
## Output 22

* * *

biological target: RAC-alpha serine/threonine-protein kinase (Homo sapiens) (UniProt P31749); test: Inhibition of AKT1/PKBalpha at 10 uM by HTRF assay relative to control
Sequence (P31749 whole entry): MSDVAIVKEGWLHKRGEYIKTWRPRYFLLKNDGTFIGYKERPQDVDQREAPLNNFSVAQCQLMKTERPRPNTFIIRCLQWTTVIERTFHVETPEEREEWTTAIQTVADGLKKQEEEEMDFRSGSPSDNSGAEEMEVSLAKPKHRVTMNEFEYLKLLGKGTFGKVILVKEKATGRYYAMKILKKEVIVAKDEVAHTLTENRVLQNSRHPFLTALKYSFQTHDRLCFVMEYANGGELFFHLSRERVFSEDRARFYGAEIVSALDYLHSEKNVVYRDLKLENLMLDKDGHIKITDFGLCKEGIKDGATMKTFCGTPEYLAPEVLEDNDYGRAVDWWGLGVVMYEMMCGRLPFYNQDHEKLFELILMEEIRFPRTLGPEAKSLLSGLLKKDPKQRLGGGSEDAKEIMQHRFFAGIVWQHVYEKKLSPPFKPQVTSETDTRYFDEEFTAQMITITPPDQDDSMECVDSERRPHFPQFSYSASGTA
Exercise: state measured inhibition for each of the compounds provided.
The reply should be a number in %, with the unit left off.

## Input Field request: inhibition | item: Cc1cc(C(=O)N2CCN(c3ncnc4c3CN(Cc3ccccc3)CC4)CC2)c(C)n1C
## Output 0

## Input Another compound to check: COc1ccc(NC(=O)Cc2ccc(Nc3cc(N(C)c4cccc(C)c4)ncn3)cc2)cn1
## Output 0

## Input Another compound to check: COc1cccc(Nc2cc(N3CCC[C@H]3C(=O)NCCN3CCCCC3)nc(N)n2)c1
## Output 2

* * *

molecular target: Mitogen-activated protein kinase 9 (Homo sapiens); test: Inhibition of JNK2 at 10 uM by HTRF assay relative to control
measured_quantity: inhibition (%)
The reply should be a number in %, with the unit left off.

## Input Field request: inhibition | item: Cc1cccc(N(C)c2cc(Nc3cccc(C(=O)N4CCCC5CCCCC54)c3)ncn2)c1 (stereo not drawn)
## Output 0

## Input Another molecule to check: O=C(NC1Cc2ccccc2C1)c1cccc(Nc2ccnc(N3CCN(c4ccccc4)CC3)n2)c1
## Output 3

## Input Another molecule to check: Nc1nc(N2CCOCC2)cc(N2CCC(C(=O)NCCc3ccc(O)cc3)CC2)n1
## Output 3

## Input Another molecule to check: COC[C@@H]1CCCN1C(=O)[C@@H]1CCCN1c1cc(Nc2cccc(OC)c2)nc(N)n1
## Output 2

## Input Another molecule to check: Cc1cccc(Oc2ccnc(N3CCN(C(=O)c4c(C)noc4C)CC3)n2)c1
## Output 6

## Input Another molecule to check: Cc1cccc(Nc2nccc3c2CN(C(=O)c2cc(C)n(C)c2C)CC3)c1
## Output 3

## Input Another molecule to check: Cc1cccc(N(C)c2cc(Nc3ccc(CC(=O)Nc4ccc5ncsc5c4)cc3)ncn2)c1
## Output 5

## Input Another molecule to check: O=C(NCc1cccnc1)c1cccc(-c2ccc(Nc3ccc4ncsc4c3)nn2)c1
## Output 51

## Input Another molecule to check: Cc1cccc(Oc2ccnc(N3CCC[C@H]3C(=O)NCc3cccnc3)n2)c1
## Output 4

## Input Another molecule to check: Nc1nc(Nc2ccc3ncsc3c2)cc(N2CCC[C@H]2C(=O)N[C@@H](CO)c2ccccc2)n1
## Output 4

## Input Another molecule to check: Cc1cccc(Nc2nccc(Nc3cccc(C(=O)NCc4ccc(N(C)C)cc4)c3)n2)c1
## Output 4

## Input Another molecule to check: Cc1ccc(CN2CCN(c3nccc(C(C#N)c4ccccn4)n3)CC2)cc1 (stereo not drawn)
## Output 3

## Input Another molecule to check: COc1ccc(-c2noc(CN3CCN(c4cc(Nc5cccc(O)c5)ncn4)CC3)n2)cc1
## Output 2

## Input Another molecule to check: Cc1cccc(N(C)c2cc(N3CCN(CC(=O)Nc4nc(-c5ccccc5)cs4)CC3)ncn2)c1
## Output 0

## Input Another molecule to check: O=C(NC[C@@H]1CCCO1)c1cccc(Nc2nccc(Nc3ccc4ncsc4c3)n2)c1
## Output 87

## Input Another molecule to check: CC(=O)CCCCC(=O)N1CCN(c2nccc(Oc3cccc(C)c3)n2)CC1
## Output 11

## Input Another molecule to check: Nc1nc(Nc2ccc3ncsc3c2)cc(N2CCC[C@H]2C(=O)NCCc2cccc(I)c2)n1
## Output 5

## Input Another molecule to check: CN(CCc1ccccn1)C(=O)[C@@H]1CCCN1c1nccc(Nc2ccccc2)n1
## Output 2
